Taken from ChEMBL document CHEMBL4513216.

Test system: Plasmodium berghei
Experiment: Screen against P. berghei liver stage (PbLuc), transformed with Luciferase, at 10uM
Format: functional, HepG2
Details: tested at 10 uM
The campaign covered roughly 69,000 compounds. About 8,600 (12%) showed an effect of 50% or more. The full list was thinned out, with strong results kept by preference.
I'd be grateful if you could share measured INHIBITION for these entries.
One number for each entry, in %.

Consider the worked cases shown below.
>>> readout_value("CC(C)CC(=O)N1CCC2(CC1)COCCN2Cc1ccc(F)cc1")
56.7
>>> readout_value("CCC(=O)N1CCC2(CC1)COCCN2Cc1ccc(F)cc1")
66
>>> readout_value("O=C(C1CC1)N1CCC2(CCCN2Cc2ccc(F)cc2)CC1")
13.7

Report INHIBITION for each item below.
1. COCCN(C)Cc1nc(-c2cccc(F)c2F)oc1C
2. O=C(CC1CCCC1)N1CCC2(CCN2Cc2ccc(F)cc2)C1 (configuration not stated)
3. CC(=O)N1CCC2(CC1)COCCN2Cc1ccc(F)cc1
4. O=C(Cc1ccccc1)N1CCC2(CCN2Cc2ccc(F)cc2)C1 (configuration not stated)
5. Nc1ncc(-c2ccc(Cl)cc2)c(C2CCCNC2)n1 (configuration not stated)
6. O=C(C1CC1)N1CCC2(CCN2Cc2ccc(F)cc2)C1 (configuration not stated)

1. 51.9
2. -43
3. 34.7
4. 1.34
5. 31.6
6. 9.97

Report INHIBITION for each item below.
1. Nc1ncc(-c2ccc(F)cc2)c(C2CCCNC2)n1 (configuration not stated)
2. Nc1ncc(-c2ccc(C(F)(F)F)cc2)c(C2CCCNC2)n1 (configuration not stated)

28.3
70.1

The measured INHIBITION associated with CCN1CCOCC12CCN(C(=O)Cc1cccs1)CC2 reads 23.3
